Cited source for all entries: patent US20240043533A1

Study System: T1, extracellular domain of cyno ILT3 (cynoILT3-ECD) (cynomolgus monkey)
T1 chain: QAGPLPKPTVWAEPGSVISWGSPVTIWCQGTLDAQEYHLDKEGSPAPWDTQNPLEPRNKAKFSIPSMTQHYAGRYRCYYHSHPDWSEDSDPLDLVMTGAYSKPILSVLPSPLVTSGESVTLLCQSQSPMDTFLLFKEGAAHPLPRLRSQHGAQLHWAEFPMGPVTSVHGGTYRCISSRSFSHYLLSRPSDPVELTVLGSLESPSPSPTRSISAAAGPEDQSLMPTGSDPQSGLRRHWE
Experimental Protocol: SPR (Biacore), antibody captured via anti-Fc on CM5 chip, soluble ILT3-ECD injected
// values below are reported kon
Numeric answer only, unit M⁻¹ s⁻¹ assumed.

Binder	kon (M⁻¹ s⁻¹)
Hz45G10 A2/A4 (antibody, V domains shown) VH: EVQLVESGGGLVQPGGSLRLSCAASGFTFSDYGMHWVRQAPGKGLEWVAYIFSGSSTIYYADTVKGRFTISRDNAKNSLYLQMNSLRAEDTAVYYCARADGRGAMDYWGQGTTVTVSS VL: DIQMTQSPSSLSASVGDRVTITCRASQDISKFLNWYQQKPGKAPKLLIYYTSRLHSGVPSRFSGSGSGTDFTFTISSLQPEDIATYFCQQGNTLPWTFGGGTKLEIK	190000

Q. Any idea what its kon is? The binder is 45G10 chimera (antibody, V domains shown, also called parental chimeric 45G10) VH: EVQLVESGGGLVKPGGSLKLSCAASGFTFSDYGMHWVRQAPEKGLEWVAYIFSGSSTIYYADTVKGRFTISRDNAKNTLFLQMTSLRSEDTAMYYCARADGRGAMDYWGQGTSVTVSS VL: DVQMTQTTSSLSASLGDRVTISCRASQDISKFLNWYQQKPDGTVTLLIYYTSRLHSGVPSRFSGSGSGTDYSLTISNLDQEDIATYFCQQGNTLPWTFGGGTKLEIK
A. 410000

Q. Now the binder Hz45G10 B1/A4 (antibody, V domains shown) VH: EVQLVESGGGLVKPGGSLRLSCAASGFTFSDYGMHWVRQAPGKGLEWVSYIFSGSSTIYYADTVKGRFTISRDNAKNSLYLQMNSLRAEDTAVYYCARADGRGAMDYWGQGTLVTVSS VL: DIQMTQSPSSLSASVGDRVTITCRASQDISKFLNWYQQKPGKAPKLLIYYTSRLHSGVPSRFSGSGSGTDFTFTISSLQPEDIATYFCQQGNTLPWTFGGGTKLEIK
A. 1.2e+06

Q. Further, for Hz48A6 B0/C2 (antibody, V domains shown) VH: EVQLVESGGGLVQPGGSLRLSCAASGFTFSSYGMSWVRQAPGKGLEWVATISSGGTYTFYPDSVKGRFTISRDNAKNSLYLQMNSLRAEDTAVYYCARRGWLLHYYAMDYWGQGTSVTVSS VL: DIQLTQSPSFLSASVGDRVTITCRPSESVDSFGNSFMHWFQQKPGKAPKLLIYLSSKLESGVPSRFSGSGSGTEFTLTISSLQPEDFATYYCQQHNEDPFTFGQGTKVEIK ?
A. 213000
